target: Casein kinase I isoform alpha (Homo sapiens); assay: Binding affinity to CK1alpha (unknown origin) using casein as substrate by fluorescence based analysis
Sequence (P48729 whole entry, canonical isoform): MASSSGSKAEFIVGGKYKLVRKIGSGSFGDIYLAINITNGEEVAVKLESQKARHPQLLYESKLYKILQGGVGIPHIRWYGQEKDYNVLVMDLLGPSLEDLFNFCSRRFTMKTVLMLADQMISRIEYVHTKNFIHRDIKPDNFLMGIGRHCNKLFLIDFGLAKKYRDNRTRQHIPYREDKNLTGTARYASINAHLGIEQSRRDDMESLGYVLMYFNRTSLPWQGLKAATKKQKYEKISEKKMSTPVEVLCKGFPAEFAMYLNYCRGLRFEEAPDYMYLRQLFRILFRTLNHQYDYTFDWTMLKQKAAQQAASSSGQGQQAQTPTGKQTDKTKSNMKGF
endpoint: Kd (nM)
Respond numerically; units are nM and should not be typed.

Query block: API: value(readout=Kd, system=Casein kinase I isoform alpha (Homo sapiens)) for record Cc1cc(/C=C/c2ccc3cc(N(C)C)ccc3[n+]2C)c(C)n1-c1ccccc1
Result block: 1

----------
assay: Ratio of AUC (0 to infinity) in brain to plasma of C57BL mouse at 20 mg/kg, iv by HPLC/MS/MS method; type: ADME, organism-based; conditions: brain and plasma, read-out: Ratio AUC
endpoint: Kp

Query block: Entry Cc1c(Cc2ccccc2)nnc(N2CCN(c3cnc(C(C)(C)O)cn3)[C@H](C)C2)c1C : reported Kp = ?
Result block: 0.69

----------
target: Protein smoothened (Homo sapiens); assay: Binding affinity to human SMO (181 to 787 residues) expressed in human HEK293 cells assessed as radioactivity incubated for 2 hrs in presence of H3-labeled smo antagonist by ligand-displacement assay; type: cell-based
endpoint: pIC50
pIC50 here: minus log base 10 of the concentration, concentration in moles per litre.

Query block: Entry Cc1cnc(-c2cc(N3CCN(C(=O)CCS(C)(=O)=O)CC3)ncc2Cl)c(C)c1 : reported pIC50 = ?
Result block: 8.24

----------
test: Anticancer activity against mouse Ptch+/- Trp53-/- MB53 cells assessed as reduction in cell viability incubated for 72 hrs by CellTiter-Glo luminescent assay; assay type: functional, cell-based
endpoint: IC50 (nM)
Respond numerically; units are nM and should not be typed.

Query block: Entry O=C(O)c1ccc2c(c1)nc(Nc1cccc(Cl)c1)c1ccncc12 : reported IC50 = ?
Result block: 2500

----------
system: Daoy; test: Antitumor activity against human Daoy cells assessed as inhibition of cell proliferation; format: functional, cell-based
endpoint: IC50
Write the figure, then the unit, nothing else.

Query block: Entry CCN1CCN(Cc2ccc(-c3cc4c(N[C@H](C)c5ccccc5)ncnc4[nH]3)cc2)CC1 [AEE-788] : reported IC50 = ?
Result block: 1700 nM

----------
biological target: Protein smoothened (Homo sapiens, UniProt Q99835, D473H); assay: Inhibition of Smo D473H mutant (unknown origin) expressed in mouse NIH3T3 cells cotransfected with Gli luciferase reporter gene assessed as Gli luciferase activity incubated for 48 hrs by Bright-Glo reagent based luciferase assay; type: cell-based
Sequence (Q99835 28-787 D473H limits assumed): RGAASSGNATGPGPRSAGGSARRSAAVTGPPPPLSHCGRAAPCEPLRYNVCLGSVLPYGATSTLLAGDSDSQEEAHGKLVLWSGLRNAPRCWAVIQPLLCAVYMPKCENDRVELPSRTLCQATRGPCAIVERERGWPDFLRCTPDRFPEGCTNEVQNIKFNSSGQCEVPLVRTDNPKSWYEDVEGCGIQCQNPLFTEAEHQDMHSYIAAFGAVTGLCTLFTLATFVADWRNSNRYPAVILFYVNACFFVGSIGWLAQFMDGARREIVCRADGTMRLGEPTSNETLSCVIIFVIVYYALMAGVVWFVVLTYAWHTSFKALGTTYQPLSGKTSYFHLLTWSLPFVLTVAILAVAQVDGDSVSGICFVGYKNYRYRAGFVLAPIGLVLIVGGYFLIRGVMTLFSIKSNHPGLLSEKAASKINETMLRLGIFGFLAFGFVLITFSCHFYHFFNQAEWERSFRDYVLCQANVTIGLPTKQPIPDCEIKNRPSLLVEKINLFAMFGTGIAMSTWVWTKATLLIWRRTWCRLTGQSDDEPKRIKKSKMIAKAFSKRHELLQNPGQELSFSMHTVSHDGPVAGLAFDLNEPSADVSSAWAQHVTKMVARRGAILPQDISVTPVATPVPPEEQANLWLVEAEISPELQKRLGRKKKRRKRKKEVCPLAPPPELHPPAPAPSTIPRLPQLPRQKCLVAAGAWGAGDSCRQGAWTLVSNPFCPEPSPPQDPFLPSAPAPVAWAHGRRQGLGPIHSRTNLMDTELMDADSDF
endpoint: pIC50
pIC50 here: minus log base 10 of the concentration, concentration in moles per litre.

Query block: Entry CCc1cc2c(c(OCC(F)(F)F)c(C(=O)NC3CCN(C(=O)CO)CC3)n2C)c(=O)n1CC(=O)c1ccccc1 : reported pIC50 = ?
Result block: 7.10

----------
test: Inhibition of hedgehog signalling in mouse NIH3T3 cells cotransfected with Gli luciferase reporter gene assessed as Gli luciferase activity incubated for 48 hrs by Bright-Glo reagent based luciferase assay; type: cell-based; settings: NIH3T3, 48 h
endpoint: pIC50
pIC50 here: minus log base 10 of the concentration, concentration in moles per litre.

Query block: Entry CCc1cc2c(c(OCC(F)(F)F)c(C(=O)NC3CCN(C(=O)CO)CC3)n2C)c(=O)n1CC(=O)c1ccccc1 : reported pIC50 = ?
Result block: 8.36

----------
assay: Cytotoxicity against human D425 Med cells expressing Glt1-tTA:TRE-MYCN/Luc (GTML) assessed as reduction in cell viability incubated for 72 hrs by Resazurin assay; format: functional, cell-based
endpoint: pIC50
pIC50 here: minus log base 10 of the concentration, concentration in moles per litre.

Query block: Entry CNC(=O)c1nn(C)c2c1C(C)(C)Cc1cnc(Nc3ccc(N4CCN(C)CC4)cc3)nc1-2 [MILCICLIB] : reported pIC50 = ?
Result block: 6.03

src = ChEMBL document CHEMBL5096161
